Target: CYP3A4 (Homo sapiens)
Sequence (P08684 whole entry): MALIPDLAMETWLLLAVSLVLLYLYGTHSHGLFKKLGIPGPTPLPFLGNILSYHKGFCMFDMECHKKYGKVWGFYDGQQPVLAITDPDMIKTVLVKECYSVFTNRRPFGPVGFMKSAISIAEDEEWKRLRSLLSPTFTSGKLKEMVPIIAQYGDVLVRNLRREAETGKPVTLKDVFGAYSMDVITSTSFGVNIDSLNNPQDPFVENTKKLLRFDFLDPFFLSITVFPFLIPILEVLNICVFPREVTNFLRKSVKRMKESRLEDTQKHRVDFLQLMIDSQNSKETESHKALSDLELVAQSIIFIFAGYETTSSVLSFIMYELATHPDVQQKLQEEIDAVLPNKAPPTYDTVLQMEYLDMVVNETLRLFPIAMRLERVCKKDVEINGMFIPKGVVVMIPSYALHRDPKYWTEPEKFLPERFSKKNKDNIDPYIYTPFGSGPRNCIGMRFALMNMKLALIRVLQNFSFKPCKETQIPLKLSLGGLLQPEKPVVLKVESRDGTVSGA
Test: Inhibition of CYP3A4 (unknown origin) at 10 uM relative to control
Format: ADME
quantity_kind: inhibition at 10 µM (%)
Provide the reading as a plain figure in %.

// lookup inhibition at 10 µM for O=C(NO)c1ccc(CCCN2CCC(CN[C@H]3C[C@@H]3c3ccccc3)CC2)cc1 (racemic)
11

====

Target: CYP2D6 (Homo sapiens, UniProt P10635)
Sequence (P10635 whole entry): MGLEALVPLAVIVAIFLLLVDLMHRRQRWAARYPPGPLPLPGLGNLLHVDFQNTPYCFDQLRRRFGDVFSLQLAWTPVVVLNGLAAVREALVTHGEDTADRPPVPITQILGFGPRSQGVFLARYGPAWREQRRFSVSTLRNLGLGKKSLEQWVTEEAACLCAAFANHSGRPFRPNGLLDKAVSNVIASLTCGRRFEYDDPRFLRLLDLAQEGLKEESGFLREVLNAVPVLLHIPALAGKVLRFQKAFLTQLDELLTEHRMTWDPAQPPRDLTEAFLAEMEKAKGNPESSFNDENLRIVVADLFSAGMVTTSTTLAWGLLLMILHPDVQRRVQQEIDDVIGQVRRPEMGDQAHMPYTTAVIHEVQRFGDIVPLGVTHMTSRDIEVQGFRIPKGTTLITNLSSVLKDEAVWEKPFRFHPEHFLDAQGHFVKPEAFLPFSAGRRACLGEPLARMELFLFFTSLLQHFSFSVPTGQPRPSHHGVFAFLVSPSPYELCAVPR
Assay: Inhibition of CYP2D6 (unknown origin) at 10 uM relative to control
Type: ADME
quantity_kind: inhibition at 10 µM
Your answer should be a number followed by the unit of measure.

// lookup inhibition at 10 µM for O=C(NO)c1ccc(CCCN2CCC(CN[C@H]3C[C@@H]3c3ccccc3)CC2)cc1 (racemic)
54%

====

Biological target: Histone deacetylase 1 (Homo sapiens) (UniProt Q13547)
Sequence (Q13547 whole entry): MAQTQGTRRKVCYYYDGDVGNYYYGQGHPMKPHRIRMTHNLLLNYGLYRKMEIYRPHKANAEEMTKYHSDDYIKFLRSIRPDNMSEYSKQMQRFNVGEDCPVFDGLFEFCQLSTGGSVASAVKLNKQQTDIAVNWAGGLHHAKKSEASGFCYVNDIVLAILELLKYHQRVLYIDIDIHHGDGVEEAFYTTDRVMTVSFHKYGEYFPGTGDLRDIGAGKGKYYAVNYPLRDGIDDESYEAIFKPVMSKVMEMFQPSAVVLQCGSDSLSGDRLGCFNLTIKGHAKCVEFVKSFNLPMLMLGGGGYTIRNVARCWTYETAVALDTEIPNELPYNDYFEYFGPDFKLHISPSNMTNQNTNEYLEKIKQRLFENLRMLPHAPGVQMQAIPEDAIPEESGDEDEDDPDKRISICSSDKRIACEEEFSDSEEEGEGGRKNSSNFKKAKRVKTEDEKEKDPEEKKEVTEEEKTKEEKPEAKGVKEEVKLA
Assay: Inhibition of human HDAC1 at 1uM using RHKKAc as substrate by fluorescence method relative to control
Provide the reported inhibition of each item.
Provide the reading as a plain figure in %.

Hi! What's the reported inhibition for O=C(NO)c1ccc(CCCN2CCC(CN[C@H]3C[C@@H]3c3ccc(-c4ccc(F)cc4)cc3)CC2)cc1 (racemic) on Histone deacetylase 1 (Homo sapiens) (UniProt Q13547)?
9.74

Hi! What's the reported inhibition for O=C(O)c1ccc(CCCN2CCC(CN[C@H]3C[C@@H]3c3ccccc3)CC2)cc1 (racemic) on Histone deacetylase 1 (Homo sapiens) (UniProt Q13547)?
8.36

Hi! What's the reported inhibition for O=C(NO)c1ccc(CCCN2CCC(CN[C@H]3C[C@@H]3c3ccc(-c4ccc(C(F)(F)F)nc4)cc3)CC2)cc1 (racemic) on Histone deacetylase 1 (Homo sapiens) (UniProt Q13547)?
33.5

Hi! What's the reported inhibition for O=C(NO)c1csc(CCCN2CCC(CN[C@H]3C[C@@H]3c3ccccc3)CC2)n1 (racemic) on Histone deacetylase 1 (Homo sapiens) (UniProt Q13547)?
-0.22

====

Provide the reported pEC50 of each item.
Test system: MM1.S
Assay: Antiproliferative activity against human MM1.S cells assessed as reduction in cell viability after 144 hrs
Type: functional, cell-based
Schema: pEC50 number; meaning minus log10 of the concentration expressed in molar units.

// lookup pEC50 for Cn1cc(-c2ccc([C@H]3C[C@@H]3NCC3CCN(CCCc4ccc(C(=O)NO)cc4)CC3)cc2)cn1 (racemic)
8.15

// lookup pEC50 for `O=C(CCCCCCNC(=O)c1cnc(N(c2ccccc2)c2ccccc2)nc1)NO`
9.07

// lookup pEC50 for CN(CC1CCN(CCCc2ccc(C(=O)NO)cc2)CC1)[C@H]1C[C@@H]1c1ccccc1 (racemic)
7.32

====

Experiment: Cmax in Balb/c mouse at 50 mg/kg, po
Assay type: ADME, organism-based
Parameters: route oral, dose 50 mg/kg
Details: in vivo
quantity_kind: Cmax (ng/mL)
Provide the reading as a plain figure in ng/mL.

// lookup Cmax for O=C(NO)c1ccc(CCCN2CCC(CN[C@H]3C[C@@H]3c3ccccc3)CC2)cc1 (racemic)
904

====

Target: UniProt Q13547
Assay: Inhibition of human HDAC1 at 1uM using RHKKAc as substrate by fluorescence method relative to control
quantity_kind: inhibition (%)
Provide the reading as a plain figure in %.

// lookup inhibition for CN(CC1CCN(CCCc2ccc(C(=O)NO)cc2)CC1)[C@H]1C[C@@H]1c1ccccc1 (racemic)
8.37

// lookup inhibition for O=C(NO)c1ccc(CCN2CCC(CN[C@H]3C[C@@H]3c3ccccc3)CC2)cc1 (racemic)
50.7

// lookup inhibition for O=C(NO)c1ccc(CCCN2CCC(CN[C@H]3C[C@@H]3c3ccc(OCc4ccc(F)cc4)cc3)CC2)cc1 (racemic)
-1.79

// lookup inhibition for O=C(NO)c1ccc(CCCN2CCC(CN[C@H]3C[C@@H]3c3ccc(C(=O)N4CCOCC4)cc3)CC2)cc1 (racemic)
47.6

====

Provide the reported inhibition of each item.
Target: UniProt:Q13547
Assay: Inhibition of human HDAC1 at 1uM using RHKKAc as substrate by fluorescence method relative to control

// lookup inhibition for O=C(NO)c1coc(CCCN2CCC(CN[C@H]3C[C@@H]3c3ccccc3)CC2)n1 (racemic)
6.85%

// lookup inhibition for O=C(NO)c1ccc(CCCN2CCC(CN[C@H]3C[C@@H]3c3ccccc3)CC2)cc1 (racemic)
18.4%

// lookup inhibition for O=C(NO)c1ccc(CCCN2CC(CN[C@H]3C[C@@H]3c3ccccc3)C2)cc1 (racemic)
0.7%

// lookup inhibition for Cc1noc(C)c1-c1ccc([C@H]2C[C@@H]2NCC2CCN(CCCc3ccc(C(=O)NO)cc3)CC2)cc1 (racemic)
35.4%

// lookup inhibition for O=C(NO)c1ccc(CCCN2CCC(CN[C@H]3C[C@@H]3c3ccc(C(=O)N4CCCCC4)cc3)CC2)cc1 (racemic)
53.9%

// lookup inhibition for O=C(NO)c1ccc(CCCN2CCC(CN[C@H]3C[C@@H]3c3ccc(-c4ccc(Cl)cc4)cc3)CC2)cc1 (racemic)
23.6%

// lookup inhibition for `O=C(NO)c1ccc(CCCN2CCC(CN[C@H]3C[C@@H]3c3ccccc3)CC2)cc1`
2.06%

// lookup inhibition for O=C(NO)c1cnc(CCCN2CCC(CN[C@H]3C[C@@H]3c3ccccc3)CC2)s1 (racemic)
10.7%

// lookup inhibition for O=C(NO)c1ccc(CCCN2CCC(CN[C@H]3C[C@@H]3c3ccc(F)cc3)CC2)cc1 (racemic)
12.7%

// lookup inhibition for O=C(NO)c1ccc(CN2CCC(CN[C@H]3C[C@@H]3c3ccccc3)CC2)cc1 (racemic)
12.9%

// lookup inhibition for Cn1ccc(-c2ccc([C@H]3C[C@@H]3NCC3CCN(CCCc4ccc(C(=O)NO)cc4)CC3)cc2)cc1=O (racemic)
59.4%

// lookup inhibition for CN(C)CCNC(=O)c1ccc([C@H]2C[C@@H]2NCC2CCN(CCCc3ccc(C(=O)NO)cc3)CC2)cc1 (racemic)
58.1%

// lookup inhibition for Cn1cc(-c2ccc([C@H]3C[C@@H]3NCC3CCN(CCCc4ccc(C(=O)NO)cc4)CC3)cc2)cn1 (racemic)
41.6%

// lookup inhibition for `O=C(NO)c1ccc(CCCN2CCC(CN[C@@H]3C[C@H]3c3ccccc3)CC2)cc1`
57.6%

// lookup inhibition for COc1ccc([C@H]2C[C@@H]2NCC2CCN(CCCc3ccc(C(=O)NO)cc3)CC2)cc1 (racemic)
46.7%

// lookup inhibition for COc1ccc([C@H]2C[C@@H]2NCc2cn3c(n2)CN(CCCc2ccc(C(=O)NO)cc2)CC3)cc1 (racemic)
26.6%

====

Experiment: Permeability from basolateral to apical side in human Caco2 cells
Assay type: ADME, cell-based
Settings: Caco-2, read-out: permeability
quantity_kind: Papp B→A (×10⁻⁶ cm/s)
Provide the reading as a plain figure in ×10⁻⁶ cm/s.

// lookup Papp B→A for O=C(NO)c1ccc(CCCN2CCC(CN[C@H]3C[C@@H]3c3ccccc3)CC2)cc1 (racemic)
9.6

====

Biological target: Lysine-specific histone demethylase 1A (Homo sapiens, UniProt O60341)
Test: Inhibition of LSD1 (unknown origin)
Conditions: read-out: IC50
quantity_kind: IC50 (nM)
Provide the reading as a plain figure in nM.

// lookup IC50 for N#Cc1ccc(-c2ccc([C@H]3C[C@@H]3NCC3CCN(CCCc4ccc(C(=O)NO)cc4)CC3)cc2)cc1 (racemic)
32

// lookup IC50 for O=C(NO)c1coc(CCCN2CCC(CN[C@H]3C[C@@H]3c3ccccc3)CC2)n1 (racemic)
26

// lookup IC50 for O=C(NO)c1cnc(CCCN2CCC(CN[C@H]3C[C@@H]3c3ccccc3)CC2)s1 (racemic)
22

// lookup IC50 for O=C(NO)c1csc(CCCN2CCC(CN[C@H]3C[C@@H]3c3ccccc3)CC2)n1 (racemic)
26

// lookup IC50 for O=C(NO)c1ccc(CCCN2CCC(CN[C@H]3C[C@@H]3c3ccc(F)cc3)CC2)cc1 (racemic)
6

// lookup IC50 for O=C(NO)c1ccc(CCCN2CCC(CN[C@H]3C[C@@H]3c3ccc(OCc4ccc(F)cc4)cc3)CC2)cc1 (racemic)
4

// lookup IC50 for O=C(NO)c1ccc(CCCN2CCC(CN[C@H]3C[C@@H]3c3ccc(C(=O)N4CCCCC4)cc3)CC2)cc1 (racemic)
23

// lookup IC50 for Cn1ccc(-c2ccc([C@H]3C[C@@H]3NCC3CCN(CCCc4ccc(C(=O)NO)cc4)CC3)cc2)cc1=O (racemic)
21

// lookup IC50 for O=C(NO)c1ccc(CCN2CCC(CN[C@H]3C[C@@H]3c3ccccc3)CC2)cc1 (racemic)
15

// lookup IC50 for CN(CC1CCN(CCCc2ccc(C(=O)NO)cc2)CC1)[C@H]1C[C@@H]1c1ccccc1 (racemic)
465

// lookup IC50 for O=C(NO)c1ccc(CCCN2CCC(CN[C@H]3C[C@@H]3c3ccc(-c4ccc(Cl)cc4)cc3)CC2)cc1 (racemic)
2

// lookup IC50 for CN(C)CCNC(=O)c1ccc([C@H]2C[C@@H]2NCC2CCN(CCCc3ccc(C(=O)NO)cc3)CC2)cc1 (racemic)
22

// lookup IC50 for COc1ccc([C@H]2C[C@@H]2NCc2cn3c(n2)CN(CCCc2ccc(C(=O)NO)cc2)CC3)cc1 (racemic)
1100

// lookup IC50 for Cn1cc(-c2ccc([C@H]3C[C@@H]3NCC3CCN(CCCc4ccc(C(=O)NO)cc4)CC3)cc2)cn1 (racemic)
43

// lookup IC50 for Cc1noc(C)c1-c1ccc([C@H]2C[C@@H]2NCC2CCN(CCCc3ccc(C(=O)NO)cc3)CC2)cc1 (racemic)
59

// lookup IC50 for O=C(NO)c1ccc(CCCN2CCC(CN[C@H]3C[C@@H]3c3ccc(-c4ccc(C(F)(F)F)nc4)cc3)CC2)cc1 (racemic)
19
